test method notes: Blood and brain concentrations (LC-MS) in mice treated intraperitoneally for a week with graduated doses
Type: in vivo, CD1 mice
setup conditions: female, CD1, mouse, brain, right hemisphere (dx), ip; females, 0.6125 mg/kg i.p. for a week; normalized to weight of a hemisphere; read-out: Brain concentration, hemisphere dx (converted)

record smiles: CO[C@H]1C[C@@H]2CC[C@@H](C)[C@@](O)(O2)C(=O)C(=O)N2CCCC[C@H]2C(=O)O[C@H]([C@H](C)C[C@@H]2CC[C@@H](OCCO)[C@H](OC)C2)CC(=O)[C@H](C)/C=C(\C)[C@@H](O)[C@@H](OC)C(=O)[C@H](C)C[C@H](C)/C=C/C=C/C=C/1C
concentration at 1 week / ng/g: 44

The origin of these recorded values is patent US20160324770A1.
